Field: EC50. Provide a value for each of the compounds that follow.
- System: L929 cells
- test_details: TNF-induced programmed necrosis of L929 cells (Cell Titer-Glo viability)
- Assay type: cell-based, mouse
- condition_details: Mus musculus, L929; stimulation with TNFα + SM164; read-out: EC50 (nM) L929 cells (mouse-derived) TNFα+ SM164
One number for each entry, in nM.

Below are 7 compounds. Give each one its EC50.
1. Cn1nnc(C(=O)NCc2ccc(C#Cc3ccccn3)c(F)c2)c1Cc1ccccc1
2. C[C@H](NC(=O)c1nnn(C)c1Cc1ccccc1)c1ccc(C#Cc2ncccc2C#N)cc1
3. C[C@H](NC(=O)c1nnn(C)c1Cc1ccccc1)c1ccc(C#Cc2ncccc2F)cc1
4. C[C@H](NC(=O)c1nnn(C)c1Cc1ccccc1)c1ccc(C#Cc2ccncc2C#N)cc1
5. C[C@H](NC(=O)c1nnn(C)c1Cc1ccccc1)c1ccc(C#Cc2ccc(C(C)(C)O)cn2)cc1
6. C[C@H](NC(=O)c1nnn(C)c1Cc1ccccc1)c1ccc(C#Cc2ccnc(N(C)C)n2)cc1
7. COc1cccnc1C#Cc1ccc([C@H](C)NC(=O)c2nnn(C)c2Cc2ccccc2)cc1

OUTPUT:
35.2
0.069
0.032
2.16
1.74
1.21
1.05

Below are 2 compounds. Give each one its EC50.
1. C[C@H](NC(=O)c1nnn(C)c1Cc1ccccc1)c1ccc(C#Cc2cccnc2)cc1
2. C[C@H](NC(=O)c1nnn(C)c1Cc1ccccc1)c1ccc(C#Cc2ncccn2)cc1

OUTPUT:
1: 1.2; 2: 0.43

---

- System: L929 cells
- test_details: TNF-induced programmed necrosis of L929 cells (Cell Titer-Glo viability)
- Format: cell-based, mouse
- condition_details: Mus musculus, L929; stimulation with TNFα + SM164; read-out: EC50 (nM) L929 cells (mouse-derived) TNFα+ SM164
metric_name: EC50 (nM)
Give bare numbers, in nM.

Examples with their reported EC50 follow.
compound="CC(C)N1CCN(c2ccc(C#Cc3ccc([C@H](C)NC(=O)c4nnn(C)c4Cc4ccccc4)cc3)nc2)CC1 [IRCBC-159]" test_target="L929 cells" measure_unit=nM result_value=0.006
compound="C[C@H](NC(=O)c1nnn(C)c1Cc1ccccc1)c1ccc(C#Cc2ncc(N3CCOCC3)cc2C#N)cc1 [IRCBC-154]" test_target="L929 cells" measure_unit=nM result_value=0.002
compound="C[C@H](NC(=O)c1nnn(C)c1Cc1ccccc1)c1ccc(C#Cc2ncc(NC3CC3)cn2)cc1 [IRCBC-271]" test_target="L929 cells" measure_unit=nM result_value=0.00618

Below are 3 compounds. Give each one its EC50.
1. C[C@H](NC(=O)c1nnn(C)c1Cc1ccccc1)c1ccc(C#Cc2ncc(N3CC(N(C)C)C3)cn2)cc1 [IRCBC-259]
2. CCN1CCN(c2ccc(C#Cc3ccc([C@H](C)NC(=O)c4nnn(C)c4Cc4ccccc4)cc3)nc2)CC1 [IRCBC-134]
3. C[C@H](NC(=O)c1nnn(C)c1Cc1ccccc1)c1ccc(C#Cc2ccc(N(C)C)cn2)cc1 [IRCBC-053]

OUTPUT:
0.001
0.005
0.011

Below are 4 compounds. Give each one its EC50.
1. C[C@H](NC(=O)c1nnn(C)c1Cc1ccccc1)c1ccc(C#Cc2cnc(N(C)C)cn2)cc1 [IRCBC-098]
2. C[C@H](NC(=O)c1nnn(C)c1Cc1ccccc1)c1ccc(C#Cc2ccnc(N(C)C)c2)cc1 [IRCBC-101]
3. CNc1ccc(C#Cc2ccc([C@H](C)NC(=O)c3nnn(C)c3Cc3ccccc3)cc2)nc1 [IRCBC-102]
4. C[C@H](NC(=O)c1nnn(C)c1Cc1ccccc1)c1ccc(C#Cc2cncn2C)cc1 [QY-20-55]

OUTPUT:
0.062
2.1
0.018
23

Below are 6 compounds. Give each one its EC50.
1. [2H]C([2H])([2H])Nc1cnc(C#Cc2ccc([C@H](C)NC(=O)c3nnn(C)c3Cc3ccccc3)cc2)c(C#N)c1 [IRCBC-257]
2. C[C@H](NC(=O)c1nnn(C)c1Cc1ccccc1)c1ccc(C#Cc2ncc(N(C)C)cn2)cc1 [IRCBC-097]
3. C[C@H](NC(=O)c1nnn(C)c1Cc1ccccc1)c1ccc(C#CC2CC2)cc1 [QY-18-47]
4. C[C@H](NC(=O)c1nnn(C)c1Cc1ccccc1)c1ccc(C#CC2CCOCC2)cc1 [QY-18-44]
5. C[C@H](NC(=O)c1nnn(C)c1Cc1ccccc1)c1ccc(C#Cc2ncccc2N(C)C)cc1 [IRCBC-124]
6. C[C@H](NC(=O)c1nnn(C)c1Cc1cccc(C#N)c1)c1ccc(C#Cc2ccccn2)cc1 [IRCBC-072]

OUTPUT:
[0.00117, 0.003, 73, 0.3, 5.87, 17.3]
